Listing: screen value of selected variants
B1: MBOAT1 peptide 17-32 (Lysophospholipid acyltransferase 1), 16-mer library wild type / NSP3 ADRP (ORF1ab Nsp3b ADRP, residues 1023-1192) (parent)
chain 1: STYLHPLSELLGIPLD
chain 2: not shown

Variants of: B1
Details: with NSP3 ADRP (ORF1ab Nsp3b ADRP, residues 1023-1192); bait immobilised on MaxiSorp plates (10 µg), library pre-cleared on GST, 2 h binding at 4 °C, five washes; one round per day, days 1-4; value from days 2 and 3; keep out of graded; scale: average fractional NGS count over selection days 2 and 3

| var | screen value |
| --- | --- |
| chain 1 I13W | 0.00073 |
| chain 1 S1I | 0.000426 |
| chain 1 Y3T | 3.8e-05 |
| chain 1 I13R | 1.08e-05 |
| chain 1 L15P | 0 |
| chain 1 I13V | 3.18e-05 |
| chain 1 L11Y | 0.00171 |
| chain 1 E9M | 0 |
| chain 1 L7A | 0 |
| chain 1 T2F | 0.00217 |
| chain 1 L15Y | 0.000938 |
| chain 1 S1E | 0.00035 |
| chain 1 S1A | 0.000215 |
| chain 1 Y3H | 3.26e-05 |
| chain 1 L11S | 3.31e-05 |
| chain 1 P14N | 3.9e-05 |
| chain 1 G12A | 0.00306 |
| chain 1 L15T | 9.33e-05 |
| chain 1 L10V | 0 |
| chain 1 G12Q | 0.000576 |
| chain 1 P14R | 0 |
| chain 1 Y3A | 0.00112 |
| chain 1 G12V | 0 |
| chain 1 L11G | 7.04e-06 |
| chain 1 S1L | 0.000154 |
| chain 1 S1T | 9.2e-05 |
| chain 1 E9V | 0 |
| chain 1 I13H | 8.18e-05 |
| chain 1 H5N | 0.0049 |
| chain 1 L4P | 7.55e-05 |
| chain 1 L10Q | 0 |
| chain 1 S1F | 0.000157 |
| chain 1 L10S | 4.6e-05 |
| chain 1 G12I | 5.57e-05 |
| chain 1 L4W | 0.000705 |
| chain 1 P14D | 0.000131 |
| chain 1 L4A | 1.65e-05 |
| chain 1 Y3N | 3.37e-05 |
| chain 1 L4M | 8.68e-05 |
| chain 1 I13K | 0 |
| chain 1 L15A | 0 |
| chain 1 L7M | 0 |
| chain 1 L4S | 0 |
| chain 1 L10G | 0 |
| chain 1 S1M | 9.76e-05 |
| chain 1 P14M | 0.00294 |
| chain 1 P14Q | 3.28e-05 |
